System: adult unfed cat fleas (Ctenocephalides felis)
Assay: Ctenocephalides felis oral test
Type: in vivo
Conditions: 48 h, read-out: activity (mortality)
measurement name: mortality at 100 ppm (%)
Quick note: give the figure in %, leave out the unit.

Reference set (3 entries):
> print(dat)
                                   molecule      measurement.name  recorded.value
1  C[C@H](NC(=O)c1cc(Cl)cc(C2(C#N)CC2)c1)c1nc(C2CC2)nn1-c1ccc(C#N)cn1  mortality at 100 ppm             100
2  C[C@H](NC(=O)c1cc(Br)cc(S(C)(=O)=O)c1)c1ncnn1-c1ccc(C#N)cn1  mortality at 100 ppm             100
3  C[C@H](NC(=O)c1cc(C(F)(F)F)cc(S(=O)(=O)C2CC2)c1)c1ncnn1-c1ccc(Cl)cn1  mortality at 100 ppm              90

Now examine the next entry.
Input: # get_value(readout='mortality at 100 ppm', item= Cc1nc([C@H](C)NC(=O)c2csc(Cl)c2)n(-c2ccc(C#N)cn2)n1 )
Output: 100

----------
Tested on: green peach aphid (Myzus persicae)
Assay: Myzus persicae spray test
Format: in vivo
Settings: 120 h, application rate 100 g/ha, after 5 days
measurement name: mortality at 100 g/ha (%)
Quick note: give the figure in %, leave out the unit.

Input: # get_value(readout='mortality at 100 g/ha', item= C[C@H](NC(=O)c1cc(C(F)(F)F)cc(S(C)(=O)=O)c1)c1nc(C2CC2)nn1-c1ccc(C#N)cn1 [I-64] )
Output: 100

----------
pest or weed control at 500 g/ha values, listed per item
Tested on: Rhipicephalus microplus larvae (strain Parkhurst, resistant against synthetic pyrethroids)
Experiment: Rhipicephalus (Boophilus) microplus in-vitro contact test, larval cattle tick
Type: in vivo
Conditions: application rate 5 pg/cm^2 (=500 g/ha), after 48 hours, read-out: activity (efficacy: larvae dead or moribund)
Quick note: give the figure in %, leave out the unit.

> print(dat)
                                   compound  unit.text  recorded.value
1  C[C@H](NC(=O)c1cc(C(F)(F)F)cc(S(=O)(=O)C2CC2)c1)c1ncnn1-c1ccc(Cl)cn1          %             100
2  C[C@H](NC(=O)c1cc(C(F)(F)F)cc(S(C)(=O)=O)c1)c1ncnn1-c1ccc(Cl)cn1          %             100
3  Cc1nc([C@H](C)NC(=O)c2cc(OC(F)F)cc(C3CC3)c2)n(-c2ccc(C#N)cn2)n1          %             100
4  CC(NC(=O)c1cc(Br)cc(C2(C(F)(F)F)CC2)c1)c1nc(Br)nn1-c1ncccn1 (stereo not shown)          %              90
5  CCS(=O)(=O)c1cc(Cl)cc(C(=O)N[C@@H](C)c2ncnn2-c2ccc(C#N)cn2)c1          %             100

Input: # get_value(readout='pest or weed control at 500 g/ha', item= COc1nc([C@H](C)NC(=O)c2cc(OC(F)F)cc(C3CC3)c2)n(-c2ccc(C#N)cn2)n1 )
Output: 100

Input: Subsequent entry: CC(NC(=O)c1cc(Cl)cc(S(C)(=O)=O)c1)c1nc(Cl)nn1-c1ccc(C#N)cn1 (stereo not shown)
Output: 100

Input: Subsequent entry: C[C@H](NC(=O)c1cc(Cl)cc(S(=O)(=O)C(F)F)c1)c1ncnn1-c1ccc(Cl)cn1
Output: 100

Input: Subsequent entry: Cc1nc([C@H](C)NC(=O)c2cc(Cl)cc(S(=O)(=O)C(F)(F)F)c2)n(-c2ccc(Cl)cn2)n1
Output: 80

Input: Subsequent entry: C[C@H](NC(=O)c1cc(C2CC2)cc(C2CC2)c1)c1ncnn1-c1ccc(C#N)cn1
Output: 100

Input: Subsequent entry: C[C@H](NC(=O)c1cc(C2CC2)cc(C(F)(F)F)c1)c1ncnn1-c1ccc(Cl)cn1
Output: 100

Input: Subsequent entry: CC(NC(=O)c1cc(Cl)cc(S(C)(=O)=O)c1)c1nc(Br)nn1-c1ccc(Cl)cn1 (stereo not shown)
Output: 100

Input: Subsequent entry: Cc1nc([C@H](C)NC(=O)c2sccc2C(F)(F)F)n(-c2ccc(C#N)cn2)n1
Output: 90

----------
Test system: Culex quinquefasciatus strain P00
Assay: Culex quinquefasciatus test (CULXFA surface treatment & contact assay)
Type: in vivo
Conditions: surface concentration 20 mg/m^2, exposure 30 minutes, 24 hours after contact, read-out: efficacy (mortality)
measurement name: mortality at 20 mg/m2

Input: Value wanted: mortality at 20 mg/m2 (Culex quinquefasciatus strain P00) of entry Cc1nc([C@H](C)NC(=O)c2csc(Cl)c2)n(-c2ncccn2)n1
Output: 80 to 100%

Input: Subsequent entry: C[C@H](NC(=O)c1cc(Cl)cc(S(=O)(=O)C2CC2)c1)c1nc(C2CC2)nn1-c1ncc(Cl)cn1
Output: 80 to 100%

Input: Subsequent entry: Cc1nc([C@H](C)NC(=O)c2cc(C)n(C)n2)n(-c2ccc(C#N)cn2)n1
Output: 80 to 100%

Input: Subsequent entry: C[C@H](NC(=O)c1cc(OC(F)(F)F)cc(C2CC2)c1)c1ncnn1-c1ccc(Cl)cn1
Output: 80 to 100%

Input: Subsequent entry: CCS(=O)(=O)c1cc(Cl)cc(C(=O)N[C@@H](C)c2ncnn2-c2ccc(C#N)cn2)c1
Output: 80 to 100%

Input: Subsequent entry: C[C@H](NC(=O)c1cc(Cl)cc(S(=O)(=O)C(F)F)c1)c1ncnn1-c1ccc(Cl)cn1
Output: 80 to 100%

----------
Test system: adult brown dog ticks (Rhipicephalus sanguineus)
Test: Rhipicephalus sanguineus in-vitro contact test, adult brown dog ticks
Assay type: in vivo
Details: application rate 5 μg/cm^2 (=500 g/ha), after 48 hours, read-out: activity (efficacy: ticks dead or moribund)
measurement name: pest or weed control at 5 µg/cm2, 500 g/ha (%)
Quick note: give the figure in %, leave out the unit.

Reference set (7 entries):
> print(dat)
                                   compound  unit.text  recorded.value
1  Cc1nc([C@H](C)NC(=O)c2cc(C(F)(F)F)n(C)n2)n(-c2ncccn2)n1 [II-25]          %             100
2  Cc1nc([C@H](C)NC(=O)c2cc(Cl)cc(S(=O)(=O)C(F)F)c2)n(-c2ccc(C#N)cn2)n1 [II-35]          %              80
3  Cc1nc([C@H](C)NC(=O)c2cc(Cl)cc(C3(C#N)CC3)c2)n(-c2ccc(C#N)cn2)n1 [II-38]          %             100
4  CC(NC(=O)c1cc(C(F)(F)F)n(C)n1)c1nc(Br)nn1-c1ncccn1 (centres unmarked) [I-39]          %              80
5  CCS(=O)(=O)c1cc(Cl)cc(C(=O)N[C@@H](C)c2nc(C3CC3)nn2-c2ncc(Cl)cn2)c1 [I-24]          %              80
6  C[C@H](NC(=O)c1cc(I)cc(C2CC2)c1)c1ncnn1-c1ccc(C#N)cn1 [II-58]          %             100
7  C[C@H](NC(=O)c1cc(Cl)cc(S(=O)(=O)C2CC2)c1)c1nc(C2CC2)nn1-c1ccc(C#N)cn1 [I-22]          %              80

Now examine the next entry.
Input: # get_value(readout='pest or weed control at 5 µg/cm2, 500 g/ha', item= C[C@H](NC(=O)c1cc(OC(F)F)cc(C2CC2)c1)c1ncnn1-c1ccc(C#N)cn1 [II-62] )
Output: 100

----------
pest or weed control at 5 µg/cm2 values, listed per item
Test system: adult cat fleas (Ctenocephalides felis)
Test: Ctenocephalides felis in-vitro contact test, adult cat flea
Assay type: in vivo
Conditions: application rate 5 μg/cm^2 (=500 g/ha), after 48 hours, read-out: activity (efficacy: fleas dead or moribund)
Quick note: give the figure in %, leave out the unit.

Reference set (3 entries):
> print(dat)
                                   compound                  measurement.name  unit.text  recorded.value
1  C[C@H](NC(=O)c1cc(I)cc(C2CC2)c1)c1ncnn1-c1ccc(C#N)cn1 [II-58]  pest or weed control at 5 µg/cm2          %              80
2  C[C@H](NC(=O)c1cc(C#N)cc(S(C)(=O)=O)c1)c1ncnn1-c1ncccn1 [II-28]  pest or weed control at 5 µg/cm2          %             100
3  Cc1nc([C@H](C)NC(=O)c2cc(Cl)cc(S(=O)(=O)C(F)F)c2)n(-c2ccc(C#N)cn2)n1 [II-35]  pest or weed control at 5 µg/cm2          %             100

Input: # get_value(readout='pest or weed control at 5 µg/cm2', item= C[C@H](NC(=O)c1cc(OC(F)(F)F)cc(C2CC2)c1)c1ncnn1-c1ccccn1 [II-22] )
Output: 100

Input: Subsequent entry: CCS(=O)(=O)c1cc(Cl)cc(C(=O)N[C@@H](C)c2ncnn2-c2ccc(C#N)cn2)c1 [II-20]
Output: 100

Input: Subsequent entry: C[C@H](NC(=O)c1cc(C(F)(F)F)cc(S(C)(=O)=O)c1)c1ncnn1-c1ncccn1 [II-13]
Output: 100

Input: Subsequent entry: C[C@H](NC(=O)c1cc(C#N)cc(C2CC2)c1)c1ncnn1-c1ncccn1 [II-54]
Output: 100

Input: Subsequent entry: CCS(=O)(=O)c1cc(C(=O)N[C@@H](C)c2ncnn2-c2ccc(Cl)cn2)cc(C(F)(F)F)c1 [II-45]
Output: 80
